target: erg-mediated K+ channel (Kerg, KV11.1) (Rattus norvegicus, UniProt O08962); construct: native channel in pituitary GH3 cells; test: whole-cell patch clamp, concentration-response of IK(erg); KCNH2 siRNA knockdown; details: gh3 cells
Sequence (O08962 whole entry): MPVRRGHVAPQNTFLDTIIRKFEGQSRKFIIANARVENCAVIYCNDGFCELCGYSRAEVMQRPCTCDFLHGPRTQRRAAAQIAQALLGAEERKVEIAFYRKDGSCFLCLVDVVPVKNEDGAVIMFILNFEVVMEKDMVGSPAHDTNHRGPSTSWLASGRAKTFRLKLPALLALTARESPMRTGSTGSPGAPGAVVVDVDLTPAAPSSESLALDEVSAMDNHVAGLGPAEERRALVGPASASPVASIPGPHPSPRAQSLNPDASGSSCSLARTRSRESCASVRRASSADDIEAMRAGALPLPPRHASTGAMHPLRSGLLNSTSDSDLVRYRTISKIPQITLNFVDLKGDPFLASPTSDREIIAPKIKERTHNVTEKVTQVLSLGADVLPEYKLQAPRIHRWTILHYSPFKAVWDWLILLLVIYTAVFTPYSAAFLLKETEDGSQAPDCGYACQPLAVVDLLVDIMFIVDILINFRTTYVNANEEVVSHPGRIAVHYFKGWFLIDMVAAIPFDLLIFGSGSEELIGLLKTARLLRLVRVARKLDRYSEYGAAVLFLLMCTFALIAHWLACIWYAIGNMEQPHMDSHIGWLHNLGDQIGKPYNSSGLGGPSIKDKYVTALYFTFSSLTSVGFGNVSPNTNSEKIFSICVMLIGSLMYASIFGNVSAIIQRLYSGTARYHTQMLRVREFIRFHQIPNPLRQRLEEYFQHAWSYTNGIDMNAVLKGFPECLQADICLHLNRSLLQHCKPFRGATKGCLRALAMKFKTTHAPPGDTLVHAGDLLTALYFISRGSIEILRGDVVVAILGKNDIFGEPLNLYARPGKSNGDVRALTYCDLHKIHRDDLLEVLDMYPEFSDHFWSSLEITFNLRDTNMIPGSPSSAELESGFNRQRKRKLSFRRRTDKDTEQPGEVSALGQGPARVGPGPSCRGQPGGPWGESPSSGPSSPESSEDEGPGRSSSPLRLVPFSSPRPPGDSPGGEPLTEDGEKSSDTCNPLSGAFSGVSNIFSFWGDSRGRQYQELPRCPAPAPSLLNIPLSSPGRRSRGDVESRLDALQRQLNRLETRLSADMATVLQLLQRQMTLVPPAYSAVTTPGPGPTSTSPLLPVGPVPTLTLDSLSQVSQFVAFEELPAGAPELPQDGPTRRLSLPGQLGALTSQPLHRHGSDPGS
pIC50: −log10 of the molar value.

>  <Compound>
c1ccc(C(NCc2cccnc2)(c2ccccc2)c2ccccc2)cc1 [UCL-2077, 3-(triphenylmethylaminomethyl)pyridine]

>  <pIC50>
5.33

$$$$
